Target: T1, P1243_AMBAM (Amblyomma americanum, UniProt A0A0C9S461 26-123);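 further: biolayer interferometry binding readings, curves fitting with R² below 0.9 dropped, every experiment run at least three times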
T1 sequence: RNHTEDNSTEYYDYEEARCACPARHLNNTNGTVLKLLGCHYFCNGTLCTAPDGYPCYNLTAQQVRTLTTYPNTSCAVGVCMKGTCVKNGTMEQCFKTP
Experiment: BLI
observable: Kd (nM)
Please reply with the bare figure in nM and do not write the unit itself.

q: Which Kd is reported for this binder? CCL5_HUMAN (ligand) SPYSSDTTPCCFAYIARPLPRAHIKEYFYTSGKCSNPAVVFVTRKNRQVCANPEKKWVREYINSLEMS
a: 1.74

q: Which Kd is reported for this binder? CCL16_HUMAN (ligand) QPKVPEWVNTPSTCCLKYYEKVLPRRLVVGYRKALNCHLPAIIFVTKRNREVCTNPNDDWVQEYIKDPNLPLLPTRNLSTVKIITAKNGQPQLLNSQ
a: 0.925

q: Which Kd is reported for this binder? CCL22_HUMAN (ligand) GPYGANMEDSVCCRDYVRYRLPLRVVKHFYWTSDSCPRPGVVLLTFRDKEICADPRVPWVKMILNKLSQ
a: 22.3

q: Which Kd is reported for this binder? CCL3L1_HUMAN (ligand) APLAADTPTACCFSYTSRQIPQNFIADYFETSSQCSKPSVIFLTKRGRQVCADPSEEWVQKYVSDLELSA
a: 5.04

q: Which Kd is reported for this binder? CCL3_HUMAN (ligand) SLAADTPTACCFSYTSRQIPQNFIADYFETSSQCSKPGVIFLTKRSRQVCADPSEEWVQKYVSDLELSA
a: 5.3

q: Which Kd is reported for this binder? CCL4L1_HUMAN (ligand) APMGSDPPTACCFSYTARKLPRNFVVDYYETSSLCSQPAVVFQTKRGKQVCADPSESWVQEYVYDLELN
a: 35.4

q: Which Kd is reported for this binder? CCL4_HUMAN (ligand) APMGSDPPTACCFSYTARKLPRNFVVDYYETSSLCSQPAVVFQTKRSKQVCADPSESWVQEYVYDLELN
a: 15.3

q: Which Kd is reported for this binder? CCL19_HUMAN (ligand) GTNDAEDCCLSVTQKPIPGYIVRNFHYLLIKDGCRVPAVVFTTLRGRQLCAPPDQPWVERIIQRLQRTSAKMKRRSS
a: 0.592

q: Which Kd is reported for this binder? CCL27_HUMAN (ligand) FLLPPSTACCTQLYRKPLSDKLLRKVIQVELQEADGDCHLQAFVLHLAQRSICIHPQNPSLSQWFEHQERKLHGTLPKLNFGMLRKMG
a: 15.1

q: Which Kd is reported for this binder? CCL17_HUMAN (ligand) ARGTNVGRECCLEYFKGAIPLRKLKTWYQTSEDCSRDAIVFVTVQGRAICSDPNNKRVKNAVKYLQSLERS
a: 0.734

q: Which Kd is reported for this binder? CCL24_HUMAN (ligand) VVIPSPCCMFFVSKRIPENRVVSYQLSSRSTCLKAGVIFTTKKGQQFCGDPKQEWVQRYMKNLDAKQKKASPRARAVA
a: 7.39
